For each record, write down the corresponding pIC50.
System: cancer cell lines (panel)
Assay: Cytotoxicity averaged or compared over the cancer cell line panel
Format: cell-based, human
Details: read-out: average IC50; average over the seven cancer cell lines
Answers are plain numbers, as −log10 of the molar value.

Return reported pIC50 values for all items listed beneath this line.
1. O=C1[O][Pt]2([NH][C@@H]3CCCC[C@H]3[NH]2)[O]C1=O [oxaliplatin]
2. N.N.[Cl][Pt][Cl] [cisplatin]

A)
1: 5.38; 2: 4.99

====

Assign IC50 to each entry below.
Tested on: A2780cisR
Assay: Cytotoxicity, 72 h exposure, cisplatin-resistant ovarian cancer cells
Format: cell-based, human
One number for each entry, in µM.

Notebook: O=C1[O][Pt]2([NH][C@@H]3CCCC[C@H]3[NH]2)[O]C1=O , IC50 read as 4.2

---
get_value(item= N.N.[Cl][Pt][Cl] [cisplatin] , readout=IC50) returns 13.8

====

Test system: A498
Assay: Cytotoxicity, 72 h exposure, kidney carcinoma
Format: cell-based, human
Details: A498, 72 h exposure
Would you mind telling me the reported pIC50 of each entry?
One number for each entry, as −log10 of the molar value.

// for each molecule in input: emit pIC50
1. O=C1[O][Pt]2([NH][C@@H]3CCCC[C@H]3[NH]2)[O]C1=O
2. N.N.[Cl-].[Cl-].[OH-].[OH-].[Pt+4] [IX, ctc-[Pt(NH3)2(OH)2Cl2]]
3. N.N.[Cl][Pt][Cl] [cisplatin]

A)
1: 5.10; 2: 4.66; 3: 4.76

====

Assign IC50 to each entry below.
System: A375
Assay: Cytotoxicity, 72 h exposure, melanoma
Type: cell-based, human
Conditions: A375, 72 h exposure
Answers are plain numbers, in µM.

Value of IC50 reported for the molecule N.N.[Cl-].[Cl-].[OH-].[OH-].[Pt+4] [IX, ctc-[Pt(NH3)2(OH)2Cl2]] is 1.93

Value of measured IC50 for the entry O=C1[O][Pt]2([NH][C@@H]3CCCC[C@H]3[NH]2)[O]C1=O : 6.3

Now consider the entry below.
Notebook: N.N.[Cl][Pt][Cl] [cisplatin] , IC50 read as 4.03
